Origin of measurements: ChEMBL document CHEMBL1201862

- Experimental system: Luciferin 4-monooxygenase (Photinus pyralis, UniProt P08659)
- Sequence (P08659 whole entry): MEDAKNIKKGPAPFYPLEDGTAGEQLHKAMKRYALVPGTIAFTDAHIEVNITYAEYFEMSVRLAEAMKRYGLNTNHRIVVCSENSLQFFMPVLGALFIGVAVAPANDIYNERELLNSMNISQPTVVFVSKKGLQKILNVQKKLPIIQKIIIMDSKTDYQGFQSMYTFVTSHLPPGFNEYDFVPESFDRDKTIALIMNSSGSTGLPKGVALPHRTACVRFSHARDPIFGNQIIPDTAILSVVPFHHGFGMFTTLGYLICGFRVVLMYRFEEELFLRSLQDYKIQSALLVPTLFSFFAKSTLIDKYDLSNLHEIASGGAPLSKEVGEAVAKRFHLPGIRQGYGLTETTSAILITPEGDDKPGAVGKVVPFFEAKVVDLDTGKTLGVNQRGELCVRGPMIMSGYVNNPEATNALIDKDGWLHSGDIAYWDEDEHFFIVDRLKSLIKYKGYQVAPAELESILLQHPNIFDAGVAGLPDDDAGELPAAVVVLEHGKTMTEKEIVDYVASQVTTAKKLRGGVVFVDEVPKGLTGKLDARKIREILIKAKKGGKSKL
- Experimental protocol: firefly luciferase enzyme inhibitors, dose response, biochemical, luminescence (AID 1891)
The source made the active and inactive calls.
Metric: EC50

Report EC50 for every entry below.
1. Cc1ccc(-c2nc(N/N=C/c3cccnc3)c3ccccc3n2)cc1
2. COCC(C)n1c(C)cc(C(=O)CN2C(=O)NC(Cc3c[nH]c4ccccc34)C2=O)c1C (configuration not stated)

1: 0.798 µM (active); 2: > 112 µM (not active)

Report EC50 for every entry below.
1. Cc1nc2cc(Nc3ccncc3)ccc2s1
2. COc1cc2c(cc1OC)-c1cc(Nc3ccc(F)cc3)nc(=O)n1CC2
3. Fc1cccc(/C=N/Nc2nccnc2Cl)c1
4. COc1ccc(CCn2c(=N)c(C(=O)NCC3CCCO3)cc3c(=O)n4ccccc4nc32)cc1 (configuration not stated)
5. COc1ccc(NC(=O)N2CCc3ccccc32)cc1
6. O=C(Nc1cccc(NC(=O)c2cccnc2Cl)c1)c1ccco1
7. Cc1ccc(C(=O)O/N=C(\N)c2ccccc2)c(Cl)c1
8. CC(C)(C)n1nnnc1C(c1ccc(Cl)cc1)N1CCSCC1 (configuration not stated)

1. > 112 µM (not active)
2. > 112 µM (not active)
3. 3.81 µM (active)
4. > 112 µM (not active)
5. 3.53 µM (active)
6. > 112 µM (not active)
7. 1.03 µM (active)
8. > 112 µM (not active)

Report EC50 for every entry below.
1. CCCn1nc(C(=O)NNC(=O)c2cccc(S(=O)(=O)NC(C)C)c2)c2ccccc2c1=O
2. Cn1c(=O)c2c(nc(SCCN3CCOCC3)n2Cc2ccccc2Cl)n(C)c1=O

> 112 µM (not active)
> 112 µM (not active)

---

These records show IC50 for Estrogen receptor beta (Homo sapiens).
Calls of active or inactive are those of the source.

# lookup: IC50 of COc1ccc(N2Cc3cccc(C(=O)N4CCN(C(=O)c5ccco5)CC4)c3C2=O)cc1 5.99 µM (active)

# lookup: IC50 of O=c1nc2s/c(=C\c3ccco3)c(=O)n2nc1Cc1ccc(F)cc1 2.35 µM (active)

# lookup: IC50 of Cc1ccc(C)c(C(=O)C2=C(O)C(=O)N(CCN3CCOCC3)C2c2ccco2)c1 (centres undefined) 18.4 µM (active)

New cases:
# lookup: IC50 of Cn1nc(CC(=O)Nc2ncc(Br)s2)c2ccccc2c1=O > 50 µM (not active)

---

- Experimental system: SUMO-activating enzyme (Homo sapiens)
- Sequence (Q9UBE0 whole entry): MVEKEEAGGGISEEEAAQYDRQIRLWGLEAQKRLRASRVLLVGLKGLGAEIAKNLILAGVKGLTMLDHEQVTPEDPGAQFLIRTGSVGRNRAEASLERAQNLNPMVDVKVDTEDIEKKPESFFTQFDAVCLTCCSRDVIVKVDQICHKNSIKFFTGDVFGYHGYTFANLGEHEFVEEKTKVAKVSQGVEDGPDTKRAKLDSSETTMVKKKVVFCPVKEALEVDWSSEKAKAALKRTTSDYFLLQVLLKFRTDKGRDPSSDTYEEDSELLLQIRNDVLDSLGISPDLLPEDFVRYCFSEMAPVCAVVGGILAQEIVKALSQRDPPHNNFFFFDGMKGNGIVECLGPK
- Sequence (Q9UBT2 whole entry): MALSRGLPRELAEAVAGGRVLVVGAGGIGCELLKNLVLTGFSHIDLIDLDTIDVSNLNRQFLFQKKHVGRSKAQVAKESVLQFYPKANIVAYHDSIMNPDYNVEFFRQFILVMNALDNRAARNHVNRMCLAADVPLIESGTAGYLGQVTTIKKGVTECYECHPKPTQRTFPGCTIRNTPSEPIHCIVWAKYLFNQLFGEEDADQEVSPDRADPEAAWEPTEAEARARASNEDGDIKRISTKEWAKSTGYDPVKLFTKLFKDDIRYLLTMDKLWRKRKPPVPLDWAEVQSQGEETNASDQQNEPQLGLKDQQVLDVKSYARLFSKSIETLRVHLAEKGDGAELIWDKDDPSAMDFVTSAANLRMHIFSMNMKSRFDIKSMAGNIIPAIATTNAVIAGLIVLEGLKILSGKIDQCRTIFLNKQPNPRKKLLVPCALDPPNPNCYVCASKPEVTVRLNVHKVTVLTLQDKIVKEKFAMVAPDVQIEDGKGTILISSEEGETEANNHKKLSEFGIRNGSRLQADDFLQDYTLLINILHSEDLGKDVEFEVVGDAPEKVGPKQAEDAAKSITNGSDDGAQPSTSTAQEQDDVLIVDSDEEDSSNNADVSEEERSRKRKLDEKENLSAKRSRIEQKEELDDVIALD
- Experimental protocol: inhibitors of in vitro SUMOylation cascade, primary screen, biochemical, HTRF, uHTS (AID 2006)
- Type: protein-complex assay
Activity calls are given as the source filed them.
Please answer using one outcome listed in 1 for active, -1 for inactive

Study these solved cases before continuing.
What call does the record list for O=c1nc2s/c(=C\c3ccco3)c(=O)n2nc1Cc1ccc(F)cc1 ? 1

What call does the record list for COC(=O)c1cccc(-c2ccc(C(c3c(C)n[nH]c3O)c3c(C)n[nH]c3O)o2)c1 ? -1

What call does the record list for Cc1ccc2[nH]c3c(c2c1)CN(C(=O)CN1CCCc2ccccc21)CC3 ? 1

New cases:
What call does the record list for CCOC(=O)c1c2ccc(OCC(=O)N/N=C/c3ccc(C)cc3)cc2n2ccccc12 ? 1

---

Provide the reported EC50 of each item.
- Experimental system: Streptokinase A (Streptococcus pyogenes serotype M1, UniProt P10520)
- Sequence (P10520 whole entry): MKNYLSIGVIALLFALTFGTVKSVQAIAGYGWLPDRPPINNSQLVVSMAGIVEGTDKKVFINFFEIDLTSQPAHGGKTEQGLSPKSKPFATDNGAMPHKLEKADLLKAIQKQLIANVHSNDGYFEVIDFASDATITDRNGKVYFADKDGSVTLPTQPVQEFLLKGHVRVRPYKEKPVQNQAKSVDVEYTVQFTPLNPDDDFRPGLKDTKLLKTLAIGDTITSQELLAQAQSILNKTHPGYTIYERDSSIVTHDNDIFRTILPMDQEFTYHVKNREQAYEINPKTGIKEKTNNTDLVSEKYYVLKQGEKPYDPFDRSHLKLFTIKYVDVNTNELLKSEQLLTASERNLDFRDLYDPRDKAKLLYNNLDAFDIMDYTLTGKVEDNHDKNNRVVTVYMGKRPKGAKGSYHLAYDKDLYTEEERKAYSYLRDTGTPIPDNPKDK
- Experimental protocol: S. pyogenes streptokinase expression inhibitors, potency, dose response, plasminogen activation absorbance, OD405 (AID 1914);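 further: secreted streptokinase activity via plasminogen activation per viability signal from cell pellet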
- Assay type: functional, Streptococcus pyogenes M1 GAS
The source made the active and inactive calls.

# lookup: EC50 of Nc1cc(-c2ccc(OC(F)(F)F)cc2)nn1-c1ccc(Cl)c(Cl)c1 20 µM (inconclusive)

# lookup: EC50 of Cc1ccc(NS(=O)(=O)c2ccc(Cl)c(NC(=S)NC(=O)C3CCCCC3)c2)cc1Cl 2.48 µM (active)

# lookup: EC50 of CSCc1cc(N(C)c2ccccc2)nc(-c2ccccn2)n1 > 150 µM (not active)

# lookup: EC50 of Cc1ccc(-c2cc(-c3cccc(F)c3)[nH]n2)c(O)c1 21.3 µM (active)

# lookup: EC50 of CCCc1ccc(-c2cc(N)[nH]n2)cc1 > 150 µM (not active)

With those in mind, consider the next compound.
# lookup: EC50 of CC(C)OC(=O)c1c2nc3ccccc3nc2n2c1nc(O)c1ccccc12 > 150 µM (not active)
